Exercise: state measured pKi for each of the compounds provided.
Target: 5-hydroxytryptamine receptor 3A (Homo sapiens)
Sequence (P46098 whole entry): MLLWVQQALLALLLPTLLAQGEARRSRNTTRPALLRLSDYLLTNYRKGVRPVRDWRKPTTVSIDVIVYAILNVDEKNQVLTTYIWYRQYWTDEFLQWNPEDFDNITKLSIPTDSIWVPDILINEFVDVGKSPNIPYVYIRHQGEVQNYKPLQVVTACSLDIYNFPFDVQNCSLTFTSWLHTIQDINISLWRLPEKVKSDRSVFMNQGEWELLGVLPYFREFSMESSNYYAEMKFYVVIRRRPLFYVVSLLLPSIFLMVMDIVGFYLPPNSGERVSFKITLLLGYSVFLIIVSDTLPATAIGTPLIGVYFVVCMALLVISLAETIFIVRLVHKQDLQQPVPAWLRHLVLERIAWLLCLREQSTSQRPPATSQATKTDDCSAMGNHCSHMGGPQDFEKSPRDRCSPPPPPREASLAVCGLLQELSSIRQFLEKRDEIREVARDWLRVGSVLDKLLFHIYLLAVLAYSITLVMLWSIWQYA
Numbers only, as −log10 of the molar value.

{"COMPOUND": "COc1ccc(C2NCCc3c2[nH]c2ccc(Cl)cc32)c(O)c1 (configuration not stated)", "pKi": 5.55}

Query :: Please give the measured pKi for this compound: COc1cc(OC)c(C2NCCc3c2[nH]c2ccc(Cl)cc32)cc1OC (configuration not stated)
Result :: 5.56

* * *

Biological target: 5-hydroxytryptamine receptor 2A (Homo sapiens, UniProt P28223)
Sequence (P28223 whole entry): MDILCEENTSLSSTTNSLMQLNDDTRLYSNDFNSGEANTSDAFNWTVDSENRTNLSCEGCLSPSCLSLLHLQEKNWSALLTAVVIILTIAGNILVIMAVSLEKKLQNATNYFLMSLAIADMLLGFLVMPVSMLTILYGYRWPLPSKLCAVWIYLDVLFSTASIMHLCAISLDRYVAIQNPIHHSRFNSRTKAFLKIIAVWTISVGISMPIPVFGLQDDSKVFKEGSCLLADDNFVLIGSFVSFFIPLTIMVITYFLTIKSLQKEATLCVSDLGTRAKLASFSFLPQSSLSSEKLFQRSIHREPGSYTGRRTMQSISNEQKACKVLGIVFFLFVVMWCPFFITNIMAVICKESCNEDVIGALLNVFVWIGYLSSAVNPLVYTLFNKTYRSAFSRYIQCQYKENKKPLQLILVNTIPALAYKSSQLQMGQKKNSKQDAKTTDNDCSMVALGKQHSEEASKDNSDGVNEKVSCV
Experiment: Agonist activity at human 5HT2A receptor stably expressed in Flp-In-T-REx-293 cells assessed as maximal Gq-mediated calcium flux by Fluo-4 direct dye based FLIPR Tetra assay relative to control
Format: functional, cell-based
Conditions: filed as agonist
OBSERVATION_TYPE: Emax (%)
One number for each entry, in %.

{"MOLECULE": "Oc1ccc(Br)cc1C1NCCc2c1[nH]c1ccc(Cl)cc21 (stereo unspecified)", "REPORTED": 79.7}
{"MOLECULE": "Oc1c(Br)cccc1C1NCCc2c1[nH]c1ccc(Cl)cc21 (stereo unspecified)", "REPORTED": 97.9}

Your task in this section: give Emax for each listed record.
1. Oc1cc(Cl)ccc1C1NCCc2c1[nH]c1ccc(Cl)cc21 (stereo unspecified)
2. Clc1ccc2[nH]c3c(c2c1)CCNC3CCc1ccccc1 (stereo unspecified)
3. Clc1ccc2[nH]c3c(c2c1)CCNC3Cc1ccccc1 (stereo unspecified)
4. Clc1ccc2[nH]c3c(c2c1)CCNC3c1cc2ccccc2s1 (stereo unspecified)
5. Oc1c(Br)cccc1C1NCCc2c1[nH]c1ccc(F)cc21 (stereo unspecified)

Result ::
[98.5, 101, 56.1, 88, 93.1]

// for each molecule below, give its Emax
1. Oc1c(Cl)cccc1C1NCCc2c1[nH]c1ccc(Cl)cc21 (stereo unspecified)
2. Oc1ccc(C2NCCc3c2[nH]c2ccc(Cl)cc32)cc1 (stereo unspecified)
3. Oc1ccc2[nH]c3c(c2c1)CCNC3c1cc(Br)ccc1O (stereo unspecified)

Result ::
1: 70.1; 2: 103; 3: 85.9

Here are 2 molecules. What values of Emax were reported for them?
1. Fc1ccc2[nH]c3c(c2c1)CCNC3c1cccnc1F (stereo unspecified)
2. COc1ccccc1C1NCCc2c1[nH]c1ccc(F)cc21 (stereo unspecified)

Result ::
1: 40.9; 2: 43.1

Lab note: each molecule below needs its Emax filled in.
1. Clc1ccc2[nH]c3c(c2c1)CCNC3c1ccccc1Cl (stereo unspecified)
2. CCC1NCCc2c1[nH]c1ccc(Cl)cc21 (stereo unspecified)
3. Cn1ccnc1C1NCCc2c1[nH]c1ccc(O)cc21 (stereo unspecified)
4. COc1ccc(C2NCCc3c2[nH]c2ccc(F)cc32)c(OC)c1 (stereo unspecified)

Result ::
1. 95.3
2. 74.3
3. 100
4. 45.6

Would you mind giving Emax for every molecule in the list below?
1. Oc1cccc(C2NCCc3c2[nH]c2ccc(O)cc32)c1 (stereo unspecified)
2. Clc1ccc2[nH]c3c(c2c1)CCNC3c1ccccc1 (stereo unspecified)

Result ::
1. 93.4
2. 83.9

Items follow; give Emax for each.
1. Oc1ccc2[nH]c3c(c2c1)CCNC3c1ccccc1C(F)(F)F (stereo unspecified)
2. Oc1ccc2[nH]c3c(c2c1)CCNC3Cc1ccccc1 (stereo unspecified)
3. Oc1ccc2[nH]c3c(c2c1)CCNC3c1ccc(Br)cc1O (stereo unspecified)
4. Cc1cccc(C2NCCc3c2[nH]c2ccc(Cl)cc32)c1 (stereo unspecified)
5. Oc1ccc2[nH]c3c(c2c1)CCNC3c1cncnc1 (stereo unspecified)
6. Oc1ccc2[nH]c3c(c2c1)CCNC3c1cc(F)ccc1O (stereo unspecified)
7. Fc1ccc2[nH]c3c(c2c1)CCNC3c1cc2ccccc2s1 (stereo unspecified)

Result ::
1: 100; 2: 59.2; 3: 67.8; 4: 63.1; 5: 89.3; 6: 88.4; 7: 40

Please give Emax, item by item, for the list that follows.
1. Fc1ccc2[nH]c3c(c2c1)CCNC3C1CCCCC1 (stereo unspecified)
2. Clc1ccc2[nH]c3c(c2c1)CCNC3c1ccc2ccccc2c1 (stereo unspecified)
3. Oc1cccc(C2NCCc3c2[nH]c2ccc(F)cc32)c1 (stereo unspecified)
4. Oc1ccc(C2NCCc3c2[nH]c2ccc(F)cc32)cc1 (stereo unspecified)
5. Oc1ccc(Br)cc1C1NCCc2c1[nH]c1ccc(F)cc21 (stereo unspecified)

Result ::
87.3
96.5
83.2
99.9
80.8

Query :: Given the molecule COc1ccccc1C1NCCc2c1[nH]c1ccc(Cl)cc21 (stereo unspecified) , what is its reported Emax?
Result :: 41.6

* * *

Provide the reported Emax of each item.
Target: 5-hydroxytryptamine receptor 2C (Homo sapiens) (UniProt P28335)
Sequence (P28335 whole entry): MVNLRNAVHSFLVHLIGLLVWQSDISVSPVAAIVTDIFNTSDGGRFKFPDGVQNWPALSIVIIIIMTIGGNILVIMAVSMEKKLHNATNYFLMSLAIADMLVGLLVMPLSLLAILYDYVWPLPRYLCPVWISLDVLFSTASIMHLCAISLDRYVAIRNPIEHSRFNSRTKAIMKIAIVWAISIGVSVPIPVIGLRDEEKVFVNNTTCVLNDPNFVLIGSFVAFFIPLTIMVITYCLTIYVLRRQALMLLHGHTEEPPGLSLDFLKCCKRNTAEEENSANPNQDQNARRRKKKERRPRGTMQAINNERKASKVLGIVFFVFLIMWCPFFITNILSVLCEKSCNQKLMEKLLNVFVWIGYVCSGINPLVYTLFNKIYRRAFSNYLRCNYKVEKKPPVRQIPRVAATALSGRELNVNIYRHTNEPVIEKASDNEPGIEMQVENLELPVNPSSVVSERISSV
Experiment: Agonist activity at human 5HT2C receptor stably expressed in Flp-In-T-REx-293 cells assessed as maximal Gq-mediated calcium flux by Fluo-4 direct dye based FLIPR Tetra assay relative to control
Format: functional, cell-based
Conditions: filed as agonist
Answers are plain numbers, in %.

Below, each entry is followed by its recorded Emax result.
{"COMPOUND": "Oc1ccc(Br)cc1C1NCCc2c1[nH]c1ccc(Cl)cc21 (stereo not given)", "TARGET": "5-hydroxytryptamine receptor 2C (Homo sapiens) (UniProt P28335)", "OBSERVATION_TYPE": "Emax", "UNITS_OF_MEASURE": "%", "REPORTED": 95.2}
{"COMPOUND": "COc1cc(OC)c(C2NCCc3c2[nH]c2ccc(O)cc32)cc1OC (stereo not given)", "TARGET": "5-hydroxytryptamine receptor 2C (Homo sapiens) (UniProt P28335)", "OBSERVATION_TYPE": "Emax", "UNITS_OF_MEASURE": "%", "REPORTED": 109}
{"COMPOUND": "Oc1ccc2[nH]c3c(c2c1)CCNC3c1ccc(Br)cc1O (stereo not given)", "TARGET": "5-hydroxytryptamine receptor 2C (Homo sapiens) (UniProt P28335)", "OBSERVATION_TYPE": "Emax", "UNITS_OF_MEASURE": "%", "REPORTED": 100}

Hello, I would appreciate it if you could give Emax for each entry below.
1. Cc1noc(C)c1C1NCCc2c1[nH]c1ccc(F)cc21 (stereo not given)
2. Fc1ccc2[nH]c3c(c2c1)CCNC3C1CCCCC1 (stereo not given)
3. Oc1cc(Cl)ccc1C1NCCc2c1[nH]c1ccc(Cl)cc21 (stereo not given)
4. Clc1ccc2[nH]c3c(c2c1)CCNC3c1ccc2ccccc2c1 (stereo not given)
5. Fc1ccc2[nH]c3c(c2c1)CCNC3c1cncnc1 (stereo not given)
6. COc1ccc(C2NCCc3c2[nH]c2ccc(F)cc32)cc1OC (stereo not given)
7. COc1ccc(C2NCCc3c2[nH]c2ccc(F)cc32)c(O)c1 (stereo not given)

Result ::
[111, 103, 102, 102, 101, 103, 105]

* * *

Target: Beta-2 adrenergic receptor (Homo sapiens)
Assay: Inhibition of beta 2 receptor (unknown origin)
Details: concentration not given here
OBSERVATION_TYPE: inhibition

Consider the reported inhibition for these compounds:
{"COMPOUND": "COc1cc(OC)c(C2NCCc3c2[nH]c2ccc(F)cc32)cc1OC (centres undefined)", "REPORTED": "< 50%"}
{"COMPOUND": "COc1cc(OC)c(C2NCCc3c2[nH]c2ccc(Cl)cc32)cc1OC (centres undefined)", "REPORTED": "< 50%"}
{"COMPOUND": "COc1ccc(C2NCCc3c2[nH]c2ccc(Cl)cc32)c(O)c1 (centres undefined)", "REPORTED": "< 50%"}

Lab note: next compound to report on.
Query :: Request the reported inhibition associated with COc1ccc(C2NCCc3c2[nH]c2ccc(F)cc32)c(O)c1 (centres undefined)
Result :: < 50%

* * *

Biological target: 5-hydroxytryptamine receptor 2B (Homo sapiens)
Sequence (P41595 whole entry): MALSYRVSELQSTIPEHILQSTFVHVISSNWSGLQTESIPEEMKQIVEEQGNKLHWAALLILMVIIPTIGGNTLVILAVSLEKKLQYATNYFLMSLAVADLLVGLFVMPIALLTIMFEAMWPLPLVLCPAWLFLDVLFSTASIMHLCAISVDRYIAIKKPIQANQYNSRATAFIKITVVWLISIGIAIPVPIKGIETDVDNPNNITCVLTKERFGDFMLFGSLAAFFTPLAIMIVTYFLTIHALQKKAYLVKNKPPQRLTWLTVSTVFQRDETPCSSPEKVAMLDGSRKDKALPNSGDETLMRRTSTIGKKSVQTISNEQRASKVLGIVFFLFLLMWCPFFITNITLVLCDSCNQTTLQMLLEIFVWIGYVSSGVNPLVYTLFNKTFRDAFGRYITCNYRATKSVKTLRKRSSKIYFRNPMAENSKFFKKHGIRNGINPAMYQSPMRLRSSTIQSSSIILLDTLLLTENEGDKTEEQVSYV
Assay: Agonist activity at human 5HT2B receptor stably expressed in Flp-In-T-REx-293 cells assessed as increase in Gq-mediated calcium flux by Fluo-4 direct dye based FLIPR Tetra assay
Type: functional, cell-based
Conditions: read-out: EC50
OBSERVATION_TYPE: log10 of EC50 (log10 of the value in nM)
Lab note - EC50 converted to log10 from values in nM.

The examples below pair each entry with its known result.
{"MOLECULE": "Oc1ccc(Cl)cc1C1NCCc2c1[nH]c1ccc(Cl)cc21 (configuration not stated)", "REPORTED": 3.30}
{"MOLECULE": "Cc1ccc(C2NCCc3c2[nH]c2ccc(Cl)cc32)c(C)c1 (configuration not stated)", "REPORTED": 2.99}
{"MOLECULE": "COc1cc(OC)c(C2NCCc3c2[nH]c2ccc(Cl)cc32)cc1OC (configuration not stated)", "REPORTED": -0.24}
{"MOLECULE": "COc1ccc(C2NCCc3c2[nH]c2ccc(F)cc32)c(O)c1 (configuration not stated)", "REPORTED": 0.11}
{"MOLECULE": "Oc1ccc(O)c(C2NCCc3c2[nH]c2ccc(F)cc32)c1 (configuration not stated)", "REPORTED": 1.40}

Working through the 4 molecules below one at a time, give log10 of EC50 for each.
1. COc1ccc(C2NCCc3c2[nH]c2ccc(Cl)cc32)c(O)c1 (configuration not stated)
2. COc1ccc(OC)c(C2NCCc3c2[nH]c2ccc(Cl)cc32)c1 (configuration not stated)
3. COc1cc(OC)c(C2NCCc3c2[nH]c2ccc(F)cc32)cc1OC (configuration not stated)
4. Oc1ccc(Br)cc1C1NCCc2c1[nH]c1ccc(Cl)cc21 (configuration not stated)

Result ::
[0.49, 2.62, 1.00, 2.66]

Take each entry in turn and give its log10 of EC50.
1. COc1ccc(C2NCCc3c2[nH]c2ccc(F)cc32)cc1OC (configuration not stated)
2. Cc1ccc(C2NCCc3c2[nH]c2ccc(F)cc32)c(C)c1 (configuration not stated)

Result ::
2.01
2.73

Query :: Fill in: log10 of EC50 of Oc1ccc(Br)cc1C1NCCc2c1[nH]c1ccc(F)cc21 (configuration not stated) is ___
Result :: 2.53
